Experimental target: full length human SIRPα v1 with a small beta-gal fragment (ED) fused to its C-terminal, expressed in K562 … (human, UniProt P78324 31-504)
Sequence (P78324 31-504): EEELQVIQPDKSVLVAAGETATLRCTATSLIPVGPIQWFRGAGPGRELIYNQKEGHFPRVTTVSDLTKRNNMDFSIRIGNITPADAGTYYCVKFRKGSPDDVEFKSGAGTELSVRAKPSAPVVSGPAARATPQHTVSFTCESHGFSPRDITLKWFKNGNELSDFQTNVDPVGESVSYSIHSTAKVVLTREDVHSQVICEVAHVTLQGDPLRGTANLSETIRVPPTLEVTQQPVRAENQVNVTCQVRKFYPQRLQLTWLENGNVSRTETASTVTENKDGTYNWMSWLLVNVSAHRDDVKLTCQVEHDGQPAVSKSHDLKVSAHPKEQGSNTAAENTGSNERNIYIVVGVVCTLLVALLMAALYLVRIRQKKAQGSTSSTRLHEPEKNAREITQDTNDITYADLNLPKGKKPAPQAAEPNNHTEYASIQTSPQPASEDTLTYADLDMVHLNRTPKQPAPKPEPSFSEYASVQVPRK
Measurement description: cell-based or functional assay
Reported endpoint: SHP-1 recruitment (% blocking), Test II (%)
The reply should contain only the number, in %.

Reference set (2 entries):
HEFLB (antibody, V domains shown) VH: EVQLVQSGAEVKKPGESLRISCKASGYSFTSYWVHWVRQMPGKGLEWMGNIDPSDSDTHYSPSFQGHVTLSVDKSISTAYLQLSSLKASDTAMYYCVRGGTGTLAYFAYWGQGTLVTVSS VL: DVVMTQSPLSLPVTLGQPASISCRSSQSLVHSYGNTYLYWFQQRPGQSPRLLIYRVSNRFSGVPDRFSGSGSGTDFTLKISRVEAEDVGVYYCFQGTHVPYTFGGGTKVEIK	50.3
071 (antibody, V domains shown, Mouse monoclonal hybridoma antibody; also called antibody 071; hybridoma antibody 071) VH: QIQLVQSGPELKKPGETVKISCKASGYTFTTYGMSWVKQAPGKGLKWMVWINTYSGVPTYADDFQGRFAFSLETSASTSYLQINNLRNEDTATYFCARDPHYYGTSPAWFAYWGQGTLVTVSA VL: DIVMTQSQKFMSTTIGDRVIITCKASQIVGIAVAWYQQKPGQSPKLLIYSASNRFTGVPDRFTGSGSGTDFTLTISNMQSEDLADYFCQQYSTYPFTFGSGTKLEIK	72.6

Next up:
Q) Given 025 (antibody, V domains shown, Mouse monoclonal hybridoma antibody; also called antibody 025; hybridoma antibody 025) VH: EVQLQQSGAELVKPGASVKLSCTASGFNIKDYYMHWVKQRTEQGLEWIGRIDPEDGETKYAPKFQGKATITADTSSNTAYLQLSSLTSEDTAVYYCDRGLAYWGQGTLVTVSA VL: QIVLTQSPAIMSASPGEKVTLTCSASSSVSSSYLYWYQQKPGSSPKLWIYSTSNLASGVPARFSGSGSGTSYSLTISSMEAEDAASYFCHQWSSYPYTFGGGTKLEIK , state its recorded SHP-1 recruitment (% blocking), Test II.
A) 91.2
